- System: human keratinocyte Hacat cells
- MEASUREMENT_PROTOCOL: Cytotoxic activity against Hacat cells
- Format: cell-based
- CONDITION_PARAMETERS: 72 h incubation
Entries and their measured IC50 follow.
Give your result in µM as a bare value.

>>> print(df.to_string())
                                   molecule  metric  unit_string  data_value
0  Fc1ccc(-c2nc3c4cccnc4c4ncccc4c3[nH]2)c(F)c1 [L2]    IC50           µM        2.72

The record that follows has no IC50 shown yet.
Input: Quick check: IC50 of Fc1cccc(-c2nc3c4cccnc4c4ncccc4c3[nH]2)c1F [L1] ?
Output: 1.85

Hello, the source for this data is paper PMC8954944, in case you need it.
